# Tested Target: T1, human TIGIT over-expressed on cells (human, UniProt Q495A1 22-244)
# T1 construct: also called CHO-K1/human TIGIT cells; CHO cells expressing human TIGIT
# T1 sequence: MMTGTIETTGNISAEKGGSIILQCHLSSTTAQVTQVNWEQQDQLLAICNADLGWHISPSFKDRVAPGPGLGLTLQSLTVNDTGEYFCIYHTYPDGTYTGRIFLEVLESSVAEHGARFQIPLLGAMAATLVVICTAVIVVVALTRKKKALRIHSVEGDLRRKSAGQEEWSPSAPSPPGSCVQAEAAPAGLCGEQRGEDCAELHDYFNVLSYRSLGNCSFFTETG
# Assay Info: FACS, CHO-K1 cells over-expressing human TIGIT
Reported Metric: EC50 (nM)
State the answer as a number, implicitly in nM.

Binder	Observed Result
121C2F10B5 (antibody, V domains shown, Mouse monoclonal antibody; also called mouse anti-human TIGIT monoclonal antibody 121C2F10B5) VH: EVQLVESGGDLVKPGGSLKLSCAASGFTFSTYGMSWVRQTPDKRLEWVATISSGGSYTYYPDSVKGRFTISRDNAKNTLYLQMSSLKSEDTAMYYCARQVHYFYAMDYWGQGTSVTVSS VL: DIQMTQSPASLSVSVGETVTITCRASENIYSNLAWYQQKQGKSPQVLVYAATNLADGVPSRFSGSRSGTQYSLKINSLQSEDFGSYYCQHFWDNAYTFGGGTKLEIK	0.36

Now for another entry.
The binder identified as 16F10H12C11 (antibody, V domains shown, Mouse monoclonal antibody; also called mouse anti-human TIGIT monoclonal antibody 16F10H12C11) VH: EVLLQQSGPELVKPGASVKIPCKASGYTFTDYNIDWVKQSHGKSLEWIGDINPNTGGTIYNQKFKGKATLTVDKSSSTAYMELRSLTSEDTAVYYCARRWLLLVYAVDYWGQGTSVTVSS VL: QIVLTQSPAIMSASPGEKVTISCSASSSVTYMYWYQQKAGSSPKPWIYRTSNLASGVPARFGGSGSGTSYSLTISSMEAEDAATYYCQQYHSFPPTFGGGTKLEIK registered its EC50 at 11.2
